The measured values listed here are drawn from patent US20200199217A1.

Biological target: T1, hu-IL-36β (human)
T1 sequence: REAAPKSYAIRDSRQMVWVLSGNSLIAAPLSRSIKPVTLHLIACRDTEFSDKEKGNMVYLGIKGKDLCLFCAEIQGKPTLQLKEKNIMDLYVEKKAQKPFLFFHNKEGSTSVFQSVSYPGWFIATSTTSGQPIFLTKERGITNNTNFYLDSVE
Assay: ELISA, yeast Fab supernatant
observed-property: ELISA OD450 (OD450)

binder	uom	reading
mAb1.0 Fab (Fab, V domains shown) VH: QVQLVESGGGVVQPGRSLRLSCAASGFSFSAYAMHWVRQAPGKGLEWVAVISYDGTNEYYADSVKGRFTISRDNSKNTLYLQMNSLRAEDTAVYYCARGIRIFTSYFDSWGQGTLVTVSS VL: QSVLTQPPSVSGAPGQRVTISCTGSSSNIGAHYDVHWYQQLPGTAPKLLIYSNNNRPSGVPDRFSGSKSGTSASLAITGLQAEDEADYYCQSYDYSLRGYVFGGGTKLTVL	OD450	0.0523
mAb4.0 Fab (Fab, V domains shown) VH: QLQLQESGPGLVKPSETLSLTCTVSGGSIGSRSYYWGWIRQPPGKGLEWIGSIHYSGTTYYNPSLKSRVTISVDTSKNQFSLKLSSVTAADTAVYYCARVAPSYPRVFDYWGQGTLVTVSS VL: QSVLTQPPSVSGAPGQRVTISCTGSSSNIGAGYDVHWYQQLPGTAPKLLIYGNRNRPSGVPDRFSGSKSGTSASLAITGLQAEDEADYYCQSYDYSLRVYVFGGGTKLTVL	OD450	0.0513
mAb3.0 Fab (Fab, V domains shown) VH: QLQLQESGPGLVKPSETLSLTCTVSGGSISSTSYYWGWIRQPPGKGLEWIGSIHYSGNTYYNPSLKSRVTISVDTSKNQFSLKLSSVTAADTAVYYCARVHYGGYIPRRFDHWGQGTLVTVSS VL: QSVLTQPPSVSGAPGQRVTISCTGSSSNIGAGYDVHWYQQLPGTAPKLLIYGNTNRPSGVPDRFSGSKSGTSASLAITGLQAEDEADYYCQSYDYSLRGYVFGGGTKLTVL	OD450	0.11
mAb5.0 Fab (Fab, V domains shown) VH: EVQLLESGGGLVQPGGSLRLSCAASGFTFSTYAMSWVRQAPGKGLEWVSGISGGSGYTYYADSVKGRFTISRDNSKNTLYLQMNSLRAEDTAVYYCARVVTYRDPPASFDYWGQGTLVTVSS VL: QSVLTQPPSVSGAPGQRVTISCTGSSSNIGAHYDVHWYQQLPGTAPKLLIYGNDNRPSGVPDRFSGSKSGTSASLAITGLQAEDEADYYCQSYDYSLKAYVFGGGTKLTVL	OD450	0.129
mAb2.0 Fab (Fab, V domains shown) VH: QLQLQESGPGLVKPSETLSLTCTVSGGSISTSSYYWGWIRQPPGKGLEWIGSIYYTGNTYYNPSLKSRVTISVDTSKNQFSLKLSSVTAADTAVYYCARVRYGVGVPRYFDPWGQGTLVTVSS VL: QSVLTQPPSVSGAPGQRVTISCTGSSSNIGAHYDVHWYQQLPGTAPKLLIYGNDNRPSGVPDRFSGSKSGTSASLAITGLQAEDEADYYCQSYDYSLSGYVFGGGTKLTVL	OD450	0.0604
